meta.source: ChEMBL document CHEMBL3272080

# TEST DESCRIPTION: Retardation factor in 1-butanol-2-propanol-1 N ammonium hydroxide-ethyl acetate at 1:1:2.5:1 ratio by TLC
# Format: physicochemical
Where a SMILES comes first, the peptide text is derived from it. [ ]: non-standard residue; d: D form. pGlu = O=C1CC[C@@H](C(=O)O)N1
Given measured Rf, output TRUE if it is greater than or equal to 0.4 and FALSE if not.

Could you tell me if the measured Rf of `CCNC(=O)[C@@H]1CCCN1C(=O)[C@H](CCCNC(=N)N)NC(=O)[C@H](CC(C)C)NC(=O)[C@@H](CCCN)NC(=O)[C@H](Cc1ccc(O)cc1)NC(=O)[C@H](CO)NC(=O)[C@H](Cc1c[nH]c2ccccc12)NC(=O)[C@H](Cc1cnc[nH]1)NC(=O)[C@@H]1CCC(=O)N1` reaches 0.4 or more?
FALSE

Could you verify whether the entry `CC(=O)NCCCC[C@@H](NC(=O)[C@H](Cc1ccc(O)cc1)NC(=O)[C@H](CO)NC(=O)[C@H](Cc1c[nH]c2ccccc12)NC(=O)[C@H](Cc1cnc[nH]1)NC(=O)[C@@H]1CCC(=O)N1)C(=O)N[C@@H](CC(C)C)C(=O)N[C@@H](CCCNC(=N)N)C(=O)N1CCC[C@H]1C(=O)NCC(N)=O` shows Rf of no less than 0.4?
TRUE

Kindly determine if Rf recorded for `CCNC(=O)[C@@H]1CCCN1C(=O)[C@H](CCCNC(=N)N)NC(=O)[C@H](CC(C)C)NC(=O)[C@@H](CCCN)NC(=O)[C@H](Cc1ccc(O)cc1)NC(=O)[C@H](CO)NC(=O)[C@H](Cc1c[nH]c2ccccc12)NC(=O)[C@@H]1CCC(=O)N1` is above or exactly 0.4.
FALSE

Evaluate CC(C)C[C@H](NC(=O)[C@@H](CCCCN)NC(=O)[C@H](Cc1ccc(O)cc1)NC(=O)[C@H](CO)NC(=O)[C@H](Cc1c[nH]c2ccccc12)NC(=O)[C@@H]1CCC(=O)N1)C(=O)N[C@@H](CCCNC(=N)N)C(=O)N1CCC[C@H]1C(=O)NCC(N)=O ([pGlu]WSY[dK]LRPG-NH2) : Rf at minimum 0.4?
FALSE

Given the entry `CCCCCCCCCCCCNCCCC[C@@H](NC(=O)[C@H](Cc1ccc(O)cc1)NC(=O)[C@H](CO)NC(=O)[C@H](Cc1c[nH]c2ccccc12)NC(=O)[C@@H]1CCC(=O)N1)C(=O)N[C@@H](CC(C)C)C(=O)N[C@@H](CCCNC(=N)N)C(=O)N1CCC[C@H]1C(=O)NCC(N)=O` , answer whether its Rf meets or surpasses 0.4.
TRUE

Check this molecule for Rf at or above 0.4: `CC(C)C[C@H](NC(=O)[C@@H](CCCN)NC(=O)[C@H](Cc1ccc(O)cc1)NC(=O)[C@H](CO)NC(=O)[C@H](Cc1c[nH]c2ccccc12)NC(=O)[C@H](Cc1cnc[nH]1)NC(=O)[C@@H]1CCC(=O)N1)C(=O)N[C@@H](CCCNC(=N)N)C(=O)N1CCC[C@H]1C(=O)NCC(N)=O`
FALSE

Is the recorded value of Rf equal to or greater than 0.4 for this molecule? `CCNC(=O)[C@@H]1CCCN1C(=O)[C@H](CCCNC(=N)N)NC(=O)[C@H](CC(C)C)NC(=O)[C@@H](CCCCN)NC(=O)[C@H](Cc1ccc(O)cc1)NC(=O)[C@H](CO)NC(=O)[C@H](Cc1c[nH]c2ccccc12)NC(=O)[C@H](Cc1cnc[nH]1)NC(=O)[C@@H]1CCC(=O)N1`
FALSE
